The measurements presented in this section are drawn from patent US7179823B1.

assay readout: melting point

Solved cases (5 shown):
O=C(O)CCc1cn(Cc2ccc(OCc3csc(-c4cccs4)n3)cc2)cc1-c1ccccc1
106 to 107 °C
Cc1oc(-c2ccccc2)nc1COc1nn(Cc2ccc(Oc3ccccc3)cc2)cc1CCC(=O)O
120 to 121 °C
Cc1oc(-c2ccccc2)nc1CCOc1ccc(Cn2cc(CC(=O)O)c(-c3ccccc3)n2)cn1
148 to 149 °C
Cc1sc(-c2ccccc2)nc1COc1ccc(Cn2cc(CC(=O)O)c(-c3ccccc3)n2)cn1
140 to 141 °C
O=C(O)CCc1cn(Cc2ccc(OCCn3ncc4ccccc4c3=O)cc2)nc1-c1ccccc1
155 to 156 °C

query: Consider the compound Cc1oc(-c2ccccc2)nc1COc1ccc(Cn2cc(CCC(=O)O)c(-c3ccccc3)n2)nc1 and give its measured melting point.
result: 175 to 176 °C

query: Consider the compound CCOc1nn(Cc2ccc(OCc3nc4ccccc4n3C)cc2)cc1CCC(=O)O and give its measured melting point.
result: 177 to 178 °C

query: Consider the compound Cc1oc(-c2ccccc2)nc1COc1ccc(Cn2cc(CCC(=O)O)cn2)cc1 and give its measured melting point.
result: 124 to 125 °C

query: Consider the compound CCOc1nn(Cc2cc(OCc3nc(-c4ccccc4)oc3C)no2)cc1CCC(=O)O and give its measured melting point.
result: 142 to 143 °C

query: Consider the compound CCOc1cc(Cn2cc(CCC(=O)O)c(-c3ccccc3)c2)cc(OCc2csc(-c3cccs3)n2)c1 and give its measured melting point.
result: 104 to 105 °C

query: Consider the compound COc1cc(COc2nn(Cc3ccc(Oc4ccccc4)cc3)cc2C(=O)O)ccc1OCc1nc(-c2ccco2)oc1C and give its measured melting point.
result: 153 to 154 °C

* * *

- System: KKA^y mice
- method: Hypoglycemic and hypolipidemic actions in mice
- Assay type: in vivo
- assay context: Mus musculus, po, 96 h, 0.001% in powdery diet, four days, percent reduction of plasma glucose compared with the non-treatment group, read-out: Hypoglycemic action (%)
Listed here: items and their measured inhibition in vivo at 0.001 %.
Give the value in % but do not write % after it.

Solved cases (3 shown):
Cc1oc(-c2cccs2)nc1COc1ccc(Cn2cc(CCC(=O)O)c(-c3ccccc3)c2)cc1
48
CCCc1nn(Cc2ccc(OCc3nc(-c4ccccc4)oc3C)cc2)cc1CCC(=O)O
50
CCOC(=O)CCc1cn(Cc2ccc(OCc3nc(-c4ccco4)oc3C)cc2)nc1-c1ccc(F)cc1
43

Next molecule, inhibition in vivo at 0.001 % to be filled in.
query: Consider the molecule Cc1oc(-c2ccco2)nc1COc1ccc(Cn2cc(CCC(=O)O)c(OCc3ccccc3)n2)cc1 and give its measured inhibition in vivo at 0.001 %.
result: 48

* * *

assay readout: melting point

query: Consider the molecule Cc1oc(-c2ccccc2)nc1COc1ccc(Cn2cc(C(=O)O)c(-c3ccccc3)n2)cc1 [Example 93] and give its measured melting point.
result: 165 to 166 °C

query: Consider the molecule Cn1c(COc2ccc(Cn3cc(CCC(=O)O)c(-c4ccccc4)n3)cc2)nc2ccccc21 [Example 292] and give its measured melting point.
result: 225 to 226 °C

query: Consider the molecule CCOc1nn(Cc2cccc(OCCn3ncc4ccccc4c3=O)c2)cc1CCC(=O)O [Example 221] and give its measured melting point.
result: 146 to 147 °C

query: Consider the molecule Cc1oc(-c2ccccc2)nc1COc1ccc(Cn2cc(CCCC(=O)O)c(-c3ccccc3)n2)cc1 [Example 96] and give its measured melting point.
result: 118 to 119 °C

query: Consider the molecule CCOc1nn(Cc2ccnc(OCc3nc(-c4ccccc4)oc3C)c2)cc1CCC(=O)O [Example 211] and give its measured melting point.
result: 114 to 115 °C

query: Consider the molecule CCOc1nn(Cc2ccc(OC)c(OCc3nc(-c4ccccc4)oc3C)c2)cc1CCC(=O)O [Example 215] and give its measured melting point.
result: 136 to 137 °C

query: Consider the molecule O=C(O)CCc1cn(Cc2ccc(OCc3csc(-c4cnccn4)n3)cc2)cc1-c1ccccc1 [Example 16] and give its measured melting point.
result: 137 to 138 °C

* * *

assay readout: melting point

Solved cases (2 shown):
O=C(O)c1cn(Cc2cccc(Oc3ccccc3)c2)nc1-c1ccccc1
148 to 149 °C
O=C(O)Cc1cn(Cc2ccc(OCc3ccccc3)cc2)nc1-c1ccc(F)cc1
194 to 195 °C

query: Consider the compound Cc1oc(-c2cccs2)nc1COc1ccc(Cn2cc(CCC(=O)O)c(-c3ccccc3)c2)cc1 and give its measured melting point.
result: 117 to 118 °C
